Assay: Inhibition of aldehyde dehydrogenase
Activity calls are given as the source filed them. The calls are words filed in the database; no cut-off is given here.

- molecule: "O=c1c(O[C@@H]2O[C@H](CO)[C@@H](O)[C@H](O)[C@H]2O)c(-c2cc(O)c(O)c(O)c2)oc2cc(O)cc(O)c12"
  inhibition: "inactive"
- molecule: "Cn1c(=O)c2c(ncn2C)n(C)c1=O [CAFFEINE]"
  inhibition: "inactive"
- molecule: "O=C(O[C@@H]1Cc2c(O)cc(O)cc2O[C@@H]1c1cc(O)c(O)c(O)c1)c1cc(O)c(O)c(O)c1 [EPIGALOCATECHIN GALLATE]"
  inhibition: "inactive"

* * *

log10(IC50) for assorted molecules
Tested on: Radical scavenging activity
Assay: Antioxidant activity assessed as DPPH radical scavenging activity after 30 mins by spectrophotometry
Format: functional
Heads up, the numbers here are log10 of IC50 in µM units.

- molecule: "O=C(/C=C/c1ccc(O)cc1)O[C@@H]1Cc2c(O)cc(O)cc2O[C@@H]1c1cc(O)c(O)c(O)c1"
  log10(IC50): 1.64

Short answer please: log10(IC50), Radical scavenging activity, entry O=C(O[C@@H]1Cc2c(O)cc(O)cc2O[C@@H]1c1cc(O)c(O)c(O)c1)c1cc(O)c(O)c(O)c1 [EPIGALOCATECHIN GALLATE]
0.92

Another molecule to look at: Cc1c(C)c2c(c(C)c1O)CC[C@@](C)(CCC[C@H](C)CCC[C@H](C)CCCC(C)C)O2
1.06

Also check O=c1c(O[C@@H]2O[C@H](CO)[C@H](O)[C@H](O)[C@H]2O)c(-c2cc(O)c(O)c(O)c2)oc2cc(O)cc(O)c12
0.54

Next record, please: Oc1cc(O)c2c(c1)O[C@H](c1ccc(O)c(O)c1)[C@@H](O)C2
0.63

Same read-out for Oc1cc(O)c2c(c1)O[C@H](c1cc(O)c(O)c(O)c1)[C@H](O)C2 [EPIGALLOCATECHIN] ?
1.21
